experiment: Thermodynamic solubility, shake-flask, 10 mM PBS (0.15 M KCl) pH 7, 25 °C, 1 h, HPLC-UV; settings: 25 °C, pH 7, aqueous buffer, thermodynamic from solid, Solubility average, thermodynamic, shake-flask, pH 7, 25 °C, 1 h
valueKind: solubility at 1 h (µM)
Report only the number, with the unit µM understood.

Please fill in: solubility at 1 h reported for Cc1ncsc1-c1ccc(CNC(=O)[C@@H]2C[C@@H](O)CN2C(=O)[C@@H](NC(=O)CCCCOCCCCCOCCCCCCNc2cccc3c2C(=O)N(C2CCC(=O)NC2=O)C3=O)C(C)(C)C)cc1 (some centres unmarked) [CRBN-6-5-5-VHL] = 1.23
